Below are compounds with their IC50 as measured on FIH (Homo sapiens, UniProt Q9NWT6).
Sequence (Q9NWT6 whole entry): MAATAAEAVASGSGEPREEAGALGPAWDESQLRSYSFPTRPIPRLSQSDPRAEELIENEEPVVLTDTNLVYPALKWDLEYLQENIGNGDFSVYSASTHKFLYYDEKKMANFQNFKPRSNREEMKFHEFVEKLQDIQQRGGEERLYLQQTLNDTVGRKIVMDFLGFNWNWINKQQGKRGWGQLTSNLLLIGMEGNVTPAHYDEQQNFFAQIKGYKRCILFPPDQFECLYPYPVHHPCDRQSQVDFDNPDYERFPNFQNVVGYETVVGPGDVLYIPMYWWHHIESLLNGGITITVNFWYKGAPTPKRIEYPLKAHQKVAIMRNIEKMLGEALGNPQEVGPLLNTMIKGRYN

- COMPOUND: "C[C@H](NC(=O)C(=O)O)C(=O)O (single isomer, unassigned) [R-enantiomer, N-oxaloylalanine]"
  IC50: "400 µM"

# next compound below
Log: FIH (Homo sapiens, UniProt Q9NWT6), compound C[C@H](NC(=O)C(=O)O)C(=O)O [S-enantiomer, N-oxaloylalanine] , IC50 = 2500 µM
